Could you please report measured inhibition for the items listed next?
assaySystem: Rac GTPase-activating protein 1 (Homo sapiens) (UniProt Q9H0H5)
Sequence (Q9H0H5 whole entry, looked up): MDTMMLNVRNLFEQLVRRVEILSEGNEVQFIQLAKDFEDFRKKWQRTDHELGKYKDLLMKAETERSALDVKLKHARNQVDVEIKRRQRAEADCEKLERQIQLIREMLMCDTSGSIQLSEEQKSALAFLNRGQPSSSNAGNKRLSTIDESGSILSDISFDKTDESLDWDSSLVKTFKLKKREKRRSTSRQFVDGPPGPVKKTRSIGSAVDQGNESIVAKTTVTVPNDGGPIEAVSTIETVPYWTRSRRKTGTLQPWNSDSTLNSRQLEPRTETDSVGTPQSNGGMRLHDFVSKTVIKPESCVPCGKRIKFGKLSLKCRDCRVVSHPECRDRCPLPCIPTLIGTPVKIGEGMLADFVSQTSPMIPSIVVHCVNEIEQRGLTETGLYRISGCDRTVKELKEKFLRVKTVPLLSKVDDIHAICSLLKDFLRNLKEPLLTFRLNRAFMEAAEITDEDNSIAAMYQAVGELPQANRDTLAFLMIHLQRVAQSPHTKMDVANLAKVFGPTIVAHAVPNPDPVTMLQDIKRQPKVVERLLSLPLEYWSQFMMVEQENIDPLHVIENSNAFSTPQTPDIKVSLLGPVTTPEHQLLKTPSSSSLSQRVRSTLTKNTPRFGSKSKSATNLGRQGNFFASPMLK
protocolDetails: blockers of MgcRacGAP-driven Rac1 GTP hydrolysis – biochemical, ADP Hunter fluorescence, primary and confirmatory, confirmation (AID 624330);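 also: fluorescence reports GDP produced by GAP-driven GTP hydrolysis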
testSettings: MgcRacGAP-stimulated Rac1 GTP hydrolysis, at 30 µM, stronger effect = higher value, GST-tagged Rac1 F28L mutant substrate
The campaign covered roughly 340,000 compounds. About 2,100 (0.62%) were called active. Only a sample is shown. Entries with a potency or affinity are not part of this list.
Return type: number; implicit unit %.

Returns the measured inhibition for the input compound. Input: CC1CN(S(=O)(=O)N(C)C)CCN1S(=O)(=O)N(C)C (configuration not stated)
5.65

Returns the measured inhibition for the input compound. Input: O=C(Nc1ccc(F)cc1)Nc1nnc(Cc2ccccc2)s1
2.79

Returns the measured inhibition for the input compound. Input: CC(=O)Nc1ccc2sc(NC(=O)CN3CCOCC3)nc2c1
7.43

Returns the measured inhibition for the input compound. Input: CC(C)(C)c1nc(N)nc(=O)[nH]1
4.68

Returns the measured inhibition for the input compound. Input: O=C(c1cccn2c(=O)c3cc(Cl)ccc3nc12)N1CCN(Cc2ccc3c(c2)OCO3)CC1
9.42

Returns the measured inhibition for the input compound. Input: CC(C)n1c2ccccc2c2cc([N+](=O)[O-])ccc21
10.7

Returns the measured inhibition for the input compound. Input: C/C(=N\NC(=O)CSc1nc2ccccc2o1)c1cccc(O)c1
10.7

Returns the measured inhibition for the input compound. Input: NC(=O)c1ccc(NC(=O)CSC(=O)c2ccccc2)cc1
8.91

Returns the measured inhibition for the input compound. Input: COc1cc(/C=N/NC(=O)CSc2nc3ccccc3n2C)cc(OC)c1OC
-9.37

Returns the measured inhibition for the input compound. Input: O=C(CCCc1nc2ccccc2s1)NC(c1ccccc1)c1ccccc1
6.29

Returns the measured inhibition for the input compound. Input: CCOC(=O)C1C(=O)N(C(=O)c2ccc(OC)cc2)CC1c1ccccc1 (configuration not stated)
3.29

Returns the measured inhibition for the input compound. Input: C=CCN(c1ccccc1)S(=O)(=O)c1cccc(C(=O)Nc2ncccc2O)c1
-0.92

Returns the measured inhibition for the input compound. Input: CCC(C)NC(=O)CNC(=S)N(CCCN1CCOCC1)Cc1cccs1 (configuration not stated)
-3.85

Returns the measured inhibition for the input compound. Input: CN1CCOCCOCCN(C)C1=O
8.52

Returns the measured inhibition for the input compound. Input: Cc1ccc(C=C2C=C(c3ccccc3)OC2=O)cc1
11.5

Returns the measured inhibition for the input compound. Input: COCC(C)NCc1ccc(C)cc1C (configuration not stated)
16.8

Returns the measured inhibition for the input compound. Input: c1ccc2c(c1)CCN(CCCNc1nc3ccccc3n3cnnc13)C2
5.26

Returns the measured inhibition for the input compound. Input: CCN(CC)c1ccc(NC(=S)NC(=O)C2CCC2)cc1
18

Returns the measured inhibition for the input compound. Input: CC(C)(C)c1nnc2cccc(Cl)n12
0.67

Returns the measured inhibition for the input compound. Input: CCN(CC)c1ccc(/C=N/NC(=O)Nc2ccccc2)cc1
28.4

Returns the measured inhibition for the input compound. Input: O=C(CSc1ncccn1)NCC1CCCO1 (configuration not stated)
4.06

Returns the measured inhibition for the input compound. Input: CCOC(=O)CCc1c(C)nc2cc(-c3ccc(Cl)cc3)[nH]n2c1=O
-6.3

Returns the measured inhibition for the input compound. Input: CCN(CC)c1ccc(-c2c(C#N)c(N)nc(OC)c2C#N)cc1
-1.06

Returns the measured inhibition for the input compound. Input: CC(=O)c1ccc(-c2nnc(CCC(=O)N3CCCC(C(=O)CC(C)C)C3)o2)s1 (configuration not stated)
9.2

Returns the measured inhibition for the input compound. Input: CC(=NNC(=O)CSc1nc2ccccc2o1)c1ccco1
3.04

Returns the measured inhibition for the input compound. Input: O=C(CC(=O)c1ccccc1)Nc1cc(C(F)(F)F)ccc1Cl
-0.8

Returns the measured inhibition for the input compound. Input: COc1cccc(NC(=O)c2sc3nc4n(c(=O)c3c2C)CCC4)c1
-4.45

Returns the measured inhibition for the input compound. Input: Cc1nc(SCc2ccc([N+](=O)[O-])cc2)nc2ccccc12
8.16

Returns the measured inhibition for the input compound. Input: C/C(=N/NC(=O)CSc1nc2ccccc2n1C)c1ccco1
7.14

Returns the measured inhibition for the input compound. Input: C=CCn1c(SCCNC(C)=O)nc2cc(-c3ccccc3)sc2c1=O
-6.43

Returns the measured inhibition for the input compound. Input: COc1cc(S(=O)(=O)N2CCCCC2)ccc1NC(=O)c1ccncc1
4.39

Returns the measured inhibition for the input compound. Input: CCn1c(SCC(=O)N/N=C/c2ccc(O)c(OC)c2)nc2ccccc21
12

Returns the measured inhibition for the input compound. Input: CCOC(=O)C(NC(=O)c1ccc(OC)cc1)(Nc1cc(C)on1)C(F)(F)F (configuration not stated)
9.87

Returns the measured inhibition for the input compound. Input: COc1ccccc1NS(=O)(=O)c1cc(N)ccc1N1CCCCC1
5.74

Returns the measured inhibition for the input compound. Input: O=C1CCNc2c(Cl)cc(Cl)cc21
-0.57

Returns the measured inhibition for the input compound. Input: COc1ccc(-c2nnn(CC(=O)NCCc3c[nH]c4ccccc34)n2)cc1OC
7.85

Returns the measured inhibition for the input compound. Input: CCOC(=O)CNc1nc(Cl)nc(Nc2ccc(Cl)cc2)n1
-8.39

Returns the measured inhibition for the input compound. Input: CC1CCN(CC(=O)Nc2cc(C(F)(F)F)ccc2Cl)CC1
6.71

Returns the measured inhibition for the input compound. Input: Cc1cccc2cc(COC(=O)COc3ccccc3)c(=O)[nH]c12
12

Returns the measured inhibition for the input compound. Input: Cc1ccc(-c2nc3cnccn3c2Nc2ccc3c(c2)OCO3)cc1
24.2

Returns the measured inhibition for the input compound. Input: CC(C)OC(=O)c1c(NC(=O)c2cnn3c2NC(c2ccccc2)CC3C(F)(F)F)sc2c1CCCC2 (configuration not stated)
10.2

Returns the measured inhibition for the input compound. Input: COc1ccc2nc(/C(C#N)=C\c3ccc(Oc4ccc([N+](=O)[O-])cn4)cc3)[nH]c2c1
5.92

Returns the measured inhibition for the input compound. Input: COCC(C)NCc1cccc2ccccc12 (configuration not stated)
26.8

Returns the measured inhibition for the input compound. Input: Cc1cc(Cl)ccc1N(CC(=O)N(C)Cc1ccccc1)S(C)(=O)=O
18.6

Returns the measured inhibition for the input compound. Input: Cc1ccn2c(NCc3ccc4c(c3)OCO4)c(-c3ccc(O)cc3)nc2c1
15.5

Returns the measured inhibition for the input compound. Input: Nc1ccc(N2CCCCC2)c(S(=O)(=O)Nc2ccc(Cl)cc2)c1
3.13

Returns the measured inhibition for the input compound. Input: CCN(CC)c1ccc(NC(=O)Nc2ccc(C(C)=O)cc2)cc1
10.2
